target: Histone-lysine N-methyltransferase NSD2 (Homo sapiens); format: biochemical
Sequence (O96028 whole entry): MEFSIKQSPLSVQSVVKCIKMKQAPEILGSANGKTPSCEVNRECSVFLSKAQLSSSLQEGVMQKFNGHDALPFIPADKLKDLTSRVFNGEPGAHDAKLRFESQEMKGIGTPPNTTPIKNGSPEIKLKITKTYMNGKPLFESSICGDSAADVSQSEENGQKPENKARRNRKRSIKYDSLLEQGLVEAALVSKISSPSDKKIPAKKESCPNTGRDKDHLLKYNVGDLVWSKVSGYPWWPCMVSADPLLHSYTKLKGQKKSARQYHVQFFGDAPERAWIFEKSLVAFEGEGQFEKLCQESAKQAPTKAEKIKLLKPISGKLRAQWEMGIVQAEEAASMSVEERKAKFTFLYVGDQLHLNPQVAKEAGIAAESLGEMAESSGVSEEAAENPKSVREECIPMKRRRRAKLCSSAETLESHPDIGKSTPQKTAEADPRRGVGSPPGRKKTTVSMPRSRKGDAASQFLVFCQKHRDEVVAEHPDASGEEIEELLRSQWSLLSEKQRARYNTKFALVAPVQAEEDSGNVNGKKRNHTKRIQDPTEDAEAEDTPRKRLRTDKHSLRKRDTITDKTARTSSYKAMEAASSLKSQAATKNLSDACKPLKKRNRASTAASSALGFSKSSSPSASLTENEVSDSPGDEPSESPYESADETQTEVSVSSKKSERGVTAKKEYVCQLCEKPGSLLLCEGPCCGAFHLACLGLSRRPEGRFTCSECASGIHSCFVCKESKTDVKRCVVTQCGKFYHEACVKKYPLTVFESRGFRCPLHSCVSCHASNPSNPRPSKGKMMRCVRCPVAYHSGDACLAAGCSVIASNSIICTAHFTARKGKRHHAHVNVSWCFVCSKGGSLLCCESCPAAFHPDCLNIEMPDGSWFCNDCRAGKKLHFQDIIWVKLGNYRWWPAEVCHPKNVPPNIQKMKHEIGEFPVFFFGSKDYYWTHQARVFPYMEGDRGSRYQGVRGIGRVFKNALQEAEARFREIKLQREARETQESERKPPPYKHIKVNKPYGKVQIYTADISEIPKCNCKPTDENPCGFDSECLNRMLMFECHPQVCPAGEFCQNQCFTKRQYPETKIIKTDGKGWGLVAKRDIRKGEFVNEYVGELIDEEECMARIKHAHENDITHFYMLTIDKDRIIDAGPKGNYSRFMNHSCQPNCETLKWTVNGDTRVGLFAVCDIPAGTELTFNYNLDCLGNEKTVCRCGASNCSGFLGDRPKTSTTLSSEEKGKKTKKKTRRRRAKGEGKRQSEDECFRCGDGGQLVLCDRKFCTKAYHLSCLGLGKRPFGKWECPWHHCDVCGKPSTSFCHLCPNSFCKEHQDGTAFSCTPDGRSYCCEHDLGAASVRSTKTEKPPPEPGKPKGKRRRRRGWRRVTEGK
Activity calls are given as the source filed them.
Labels: yes (1) = active, no (0) = inactive

>  <STRUCTURE>
COc1cccc2c(SCC(=O)N/N=C/c3ccc(O)c(O)c3)cc(C)nc12

>  <TARGET_ENTITY>
Histone-lysine N-methyltransferase NSD2 (Homo sapiens)

>  <CATEGORY_LABEL>
yes (1)

$$$$
>  <STRUCTURE>
CC(C)c1ccc(S(=O)(=O)N2CCN(CC(=O)c3ccc(O)c(O)c3)CC2)cc1

>  <TARGET_ENTITY>
Histone-lysine N-methyltransferase NSD2 (Homo sapiens)

>  <CATEGORY_LABEL>
yes (1)

$$$$
>  <STRUCTURE>
CCN(CC)CCCN(Cc1cc2cc(OC)c(OC)cc2nc1O)C(=O)Nc1ccccc1

>  <TARGET_ENTITY>
Histone-lysine N-methyltransferase NSD2 (Homo sapiens)

>  <CATEGORY_LABEL>
no (0)

$$$$
>  <STRUCTURE>
Cc1ccc(-n2[nH]c(C)c(/C=N/Nc3ccc([N+](=O)[O-])cc3[N+](=O)[O-])c2=O)cc1C

>  <TARGET_ENTITY>
Histone-lysine N-methyltransferase NSD2 (Homo sapiens)

>  <CATEGORY_LABEL>
yes (1)

$$$$
>  <STRUCTURE>
CN(C)c1ccc2cc(S(=O)(=O)O)cc(O)c2c1

>  <TARGET_ENTITY>
Histone-lysine N-methyltransferase NSD2 (Homo sapiens)

>  <CATEGORY_LABEL>
yes (1)

$$$$

====

molecular target: DNA dC->dU-editing enzyme APOBEC-3A (Homo sapiens, UniProt P31941); test: Dose Response confirmation of small molecule APOBEC3A DNA Deaminase Inhibitors via a fluorescence-based single-stranded DNA deaminase assay. [Related pubchem assays (depositor defined):AID493011, AID493024]; assay type: functional
Sequence (P31941 whole entry): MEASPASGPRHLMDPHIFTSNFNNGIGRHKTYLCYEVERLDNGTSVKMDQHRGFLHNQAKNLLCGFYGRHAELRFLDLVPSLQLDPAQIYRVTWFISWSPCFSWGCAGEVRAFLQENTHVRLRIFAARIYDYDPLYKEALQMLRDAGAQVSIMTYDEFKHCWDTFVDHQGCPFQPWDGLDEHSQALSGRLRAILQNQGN
The source made the active and inactive calls.
Below, each of the compounds is paired with its reported IC50 value.
MEASURED_PROPERTY: IC50

>  <COMPOUND>
Cc1ccc2c(c1)C1CN(C)CCC1N2CC(=O)N(C)c1ccccc1 (centres undefined)

>  <OBSERVED_RESULT>
5.51 µM (active)

$$$$
>  <COMPOUND>
COc1ccccc1N=Nc1[nH]c2ccc(C)cc2c1O

>  <OBSERVED_RESULT>
6.59 µM (active)

$$$$
>  <COMPOUND>
CCN1CCN(c2ccc(S(=O)(=O)N3CCCCC3)cc2NC(=O)/C=C/c2ccc(OC(F)F)cc2)CC1

>  <OBSERVED_RESULT>
4.28 µM (active)

$$$$
>  <COMPOUND>
OCCNC1=NCCN1

>  <OBSERVED_RESULT>
2.2 µM (active)

$$$$

====

Below, each of the compounds is paired with its reported EC50 value.
biological target: Corticotropin-releasing factor receptor 2/Corticotropin-releasing factor-binding protein (Homo sapiens, UniProt P24387+Q13324); assay: activators of CRF receptor 2 with binding protein – uHTS hits, confirmation (AID 602473); type: functional; details: read-out: EC50_Mean
Sequence (Q13324 whole entry): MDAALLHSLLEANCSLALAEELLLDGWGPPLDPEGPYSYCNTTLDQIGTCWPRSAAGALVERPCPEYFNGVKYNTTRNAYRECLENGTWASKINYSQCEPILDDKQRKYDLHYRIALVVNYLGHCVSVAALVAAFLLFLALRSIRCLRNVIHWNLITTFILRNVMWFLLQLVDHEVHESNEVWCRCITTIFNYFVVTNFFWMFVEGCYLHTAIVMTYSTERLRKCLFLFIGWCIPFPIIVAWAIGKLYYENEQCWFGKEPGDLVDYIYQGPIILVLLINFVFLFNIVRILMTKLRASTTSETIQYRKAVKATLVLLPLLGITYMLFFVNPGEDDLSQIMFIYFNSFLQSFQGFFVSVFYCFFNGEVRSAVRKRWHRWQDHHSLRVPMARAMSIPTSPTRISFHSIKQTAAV
Sequence (P24387 whole entry): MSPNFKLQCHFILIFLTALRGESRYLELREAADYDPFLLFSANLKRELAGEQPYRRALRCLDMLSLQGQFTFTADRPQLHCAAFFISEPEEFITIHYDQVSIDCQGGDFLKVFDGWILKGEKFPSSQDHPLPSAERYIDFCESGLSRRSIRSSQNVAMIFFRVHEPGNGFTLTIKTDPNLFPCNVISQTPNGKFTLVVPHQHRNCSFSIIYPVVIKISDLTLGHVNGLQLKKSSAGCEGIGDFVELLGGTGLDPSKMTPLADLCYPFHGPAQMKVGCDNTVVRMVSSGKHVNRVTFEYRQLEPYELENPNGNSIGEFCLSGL
The source made the active and inactive calls.

>  <COMPOUND>
O=C(Nc1cccc(S(=O)(=O)N2CCCCC2)c1)c1ccccc1NS(=O)(=O)c1ccc(F)cc1

>  <EC50>
> 53 µM (inactive)

$$$$
>  <COMPOUND>
COC(=O)C1=C(c2ccc(C(C)=O)cc2)C[C@@H]2CC[C@H]1N2C(=O)NCc1ccc(C(F)(F)F)cc1

>  <EC50>
4.94 µM (active)

$$$$
>  <COMPOUND>
O=c1c(/C=C(\O)c2ccccc2)nc2ccccc2n1-c1ccccc1

>  <EC50>
11.6 µM (active)

$$$$
>  <COMPOUND>
COCCCn1c(-c2ccc(OC)cc2)cc(C(=O)NC2CCCCCCC2)c1C

>  <EC50>
> 53 µM (inactive)

$$$$
>  <COMPOUND>
COc1cc(O)c2c(c1)COC2=O

>  <EC50>
> 53 µM (inactive)

$$$$
>  <COMPOUND>
O=C(CC1N=C2c3ccccc3N=C(SCc3ccccc3Cl)N2C1=O)NCc1ccco1 (stereo not given)

>  <EC50>
> 53 µM (inactive)

$$$$
>  <COMPOUND>
COc1ccc(/C(O)=C/c2nc3ccccc3n(-c3ccccc3)c2=O)cc1

>  <EC50>
7.85 µM (active)

$$$$
>  <COMPOUND>
Cc1ccc(Nc2ccc(C(=O)O)cc2N)cc1

>  <EC50>
> 53 µM (inactive)

$$$$
>  <COMPOUND>
Cc1ccc2c(c1)C(C)CC(C)(C)N2C(=O)CN1CCN(C)CC1 (stereo not given)

>  <EC50>
> 53 µM (inactive)

$$$$
>  <COMPOUND>
Cc1nnc(SCC(=O)c2cc(C)n(C3CC3)c2C)s1

>  <EC50>
7.62 µM (active)

$$$$
